- ASSAYED TARGET: Recombinant human Aurora B (amino acids 1-344) (Homo sapiens (Human), UniProt Q96GD4)
- Sequence (Q96GD4 whole entry, the tested form may be a part): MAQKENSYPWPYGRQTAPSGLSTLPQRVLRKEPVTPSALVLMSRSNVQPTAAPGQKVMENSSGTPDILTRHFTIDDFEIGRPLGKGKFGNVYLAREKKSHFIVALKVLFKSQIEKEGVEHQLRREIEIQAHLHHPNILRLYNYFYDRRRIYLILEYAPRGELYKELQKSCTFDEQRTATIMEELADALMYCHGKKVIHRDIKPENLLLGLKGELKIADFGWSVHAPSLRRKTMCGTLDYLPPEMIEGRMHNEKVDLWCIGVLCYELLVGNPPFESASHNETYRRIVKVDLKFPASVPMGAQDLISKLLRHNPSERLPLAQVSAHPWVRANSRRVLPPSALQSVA
- ASSAY COMMENT: Aurora B kinase test (ADP Glo)
- Format: biochemical
REPORTED ENDPOINT: selectivity ratio IC50(AURB)/IC50(SYK)
Answer as a number with no unit attached.

INPUT: For the molecule C[C@@H](Oc1cc(-c2cnn(C3CC(C)(C)OC3(C)C)c2)cc2nn(C)c(F)c12)[C@H]1CNC(=O)C1 (stereo partly drawn) [Example 14] , report selectivity ratio IC50(AURB)/IC50(SYK).
OUTPUT: 15625

INPUT: For the molecule Cc1c2c(O[C@H](C)[C@H]3CNC(=O)C3)cc(-c3cnn(CCF)c3)cc2nn1C [Example 11] , report selectivity ratio IC50(AURB)/IC50(SYK).
OUTPUT: 20800

INPUT: For the molecule Cc1c2c(O[C@H](C)[C@H]3CNC(=O)C3)cc(-c3cnn(C(C)C)c3)cc2nn1C [Example 18] , report selectivity ratio IC50(AURB)/IC50(SYK).
OUTPUT: 18323

INPUT: For the molecule C[C@@H](Oc1cc(-c2cnn(C3CCC(F)(F)C3)c2)cc2nn(C)c(F)c12)[C@H]1CNC(=O)C1 (stereo partly drawn) [Example 7] , report selectivity ratio IC50(AURB)/IC50(SYK).
OUTPUT: 20154

INPUT: For the molecule C[C@@H](Oc1nc(-c2cnn(C(C)(C)C)c2)cc2ncn(C)c12)[C@H]1CNC(=O)C1 [example 3A.02, on page 196 of WO15017610, reference compound] , report selectivity ratio IC50(AURB)/IC50(SYK).
OUTPUT: 891

INPUT: For the molecule Cc1c2c(O[C@H](C)[C@H]3CNC(=O)C3)cc(-c3cnn(C4CC4)c3)cc2nn1C [Example 20] , report selectivity ratio IC50(AURB)/IC50(SYK).
OUTPUT: 13932

* * *

- Test system: human hepatocytes
- ASSAY COMMENT: Human hepatocyte stability test
- Format: in vitro ADME
- ASSAY SETUP: human hepatocyte suspension, percent of hepatic blood flow
- Method: A more comprehensive way to measure the metabolic stability of a compound of the instant invention than microsomal stability (section 5.6) is the human hepatocyte stability test as described below. Herein the metabolic degradation for the compound in question is performed in a human hepatocyte suspension. […] The decline of the compound to be tested is analyzed by HPLC-MS/MS. CLint is calculated as follows CL_INTRINSIC=Dose/AUC=(C0/CD)/(AUD+clast/k)×1000/60. […]
REPORTED ENDPOINT: stability in human hepatocytes (chapter 5.7) HEPhu (% Qh)
Reply numerically in % Qh, unit not repeated.

Cc1c2c(O[C@H](C)[C@H]3CNC(=O)C3)cc(-c3cnn(C4CC(C)(C)OC4(C)C)c3)cc2nn1C (stereo partly drawn) [Example 16]	6

INPUT: For the compound Cc1c2c(O[C@H](C)[C@H]3CNC(=O)C3)cc(-c3cnn(CCF)c3)cc2nn1C [Example 11] , report stability in human hepatocytes (chapter 5.7) HEPhu.
OUTPUT: 4

INPUT: For the compound Cc1c2c(O[C@H](C)[C@H]3CNC(=O)C3)cc(-c3cnn(CC4CC4)c3)cc2nn1C [Example 8] , report stability in human hepatocytes (chapter 5.7) HEPhu.
OUTPUT: 5

INPUT: For the compound Cc1c2c(O[C@H](C)[C@H]3CNC(=O)O3)nc(-c3cnn(C(C)(C)C)c3)cc2nn1C [Example 3] , report stability in human hepatocytes (chapter 5.7) HEPhu.
OUTPUT: 7

* * *

Listing: stability in human hepatocytes (chapter 5.7) HEPhu of selected compounds
- Test system: human hepatocytes
- ASSAY COMMENT: Human hepatocyte stability test
- Format: in vitro ADME
- ASSAY SETUP: human hepatocyte suspension, percent of hepatic blood flow

Worked examples follow.
Cc1c2c(O[C@H](C)[C@H]3CNC(=O)C3)cc(-c3cnn(C4CC4)c3)cc2nn1C [Example 20]	<4 % Qh
C[C@@H](Oc1nc(-c2cnn(C(C)(C)C)c2)cc2ncn(C)c12)[C@H]1CNC(=O)C1 [example 3A.02, on page 196 of WO15017610, reference compound]	7 % Qh
Cc1c2c(O[C@H](C)[C@H]3CNC(=O)C3)nc(-c3c[nH]nc3C(C)(C)C)cc2nn1C [Example 4]	10 % Qh
Cc1c2c(O[C@H](C)[C@H]3CNC(=O)C3)cc(-c3cnn(C(C)(C)C)c3)cc2nn1C [Example 13]	3 % Qh
Cc1c2c(O[C@H](C)[C@H]3CNC(=O)C3)cc(-c3cnn([C@H]4CO[C@@H]5CCCO[C@@H]54)c3)cc2nn1C [Example 10]	9 % Qh

INPUT: For the compound C[C@@H](Oc1cc(-c2cnn(C(C)(C)C)c2)cc2ncn(C)c12)[C@H]1CNC(=O)C1 [example 3B.22 on page 219 of WO15017610, reference compound] , report stability in human hepatocytes (chapter 5.7) HEPhu.
OUTPUT: 5 % Qh

* * *

Listing: selectivity ratio IC50(AURB)/IC50(SYK) of selected compounds
- ASSAYED TARGET: Recombinant human Aurora B (amino acids 1-344) (Homo sapiens (Human))
- ASSAY COMMENT: Aurora B kinase test (ADP Glo)
- Assay type: biochemical

Worked examples follow.
Cc1cnn2cc(-c3cnn(C(C)(C)C)c3)cc(O[C@H](C)[C@H]3CNC(=O)C3)c12 [example 6.09 on page 559 of WO15017610, reference compound]	370
Cc1c2c(O[C@H](C)[C@H]3CNC(=O)O3)nc(-c3cnn(C(C)(C)C)c3)cc2nn1C	15731
Cc1c2c(O[C@H](C)[C@H]3CNC(=O)C3)nc(-c3c[nH]nc3C(C)(C)C)cc2nn1C	29636
Cc1c2c(O[C@H](C)[C@H]3CNC(=O)C3)cc(-c3cnn(C(C)(C)C)c3)cc2nn1C	39982
C[C@@H](Oc1cc(-c2cnn(C3CCC3)c2)cc2nn(C)c(F)c12)[C@H]1CNC(=O)C1	34800

INPUT: For the compound Cc1c2c(O[C@H](C)[C@H]3CNC(=O)C3)cc(-c3cnn([C@@H]4CCOC(C)(C)C4)c3)cc2nn1C , report selectivity ratio IC50(AURB)/IC50(SYK).
OUTPUT: 21219

INPUT: For the compound Cc1c2c(O[C@H](C)[C@H]3CNC(=O)C3)cc(-c3cnn(CC4CC4)c3)cc2nn1C , report selectivity ratio IC50(AURB)/IC50(SYK).
OUTPUT: 15080

* * *

- ASSAYED TARGET: Recombinant human SYK (amino acids 342-635), GST-SYK kinase fusion protein (Homo sapiens (Human))
- ASSAY COMMENT: SYK kinase inhibition test (Kinase Glo luminescence)
- Format: biochemical
- ASSAY SETUP: read-out: SYK inhibition IC50-value (chapter 5.1)
Listing: pIC50 of selected compounds
The scale used: pIC50 is minus the common logarithm of the concentration in molar units.

Worked examples follow.
C[C@@H](Oc1cc(-c2cnn(C(C)(C)C)c2)cc2ncn(C)c12)[C@H]1CNC(=O)C1 [example 3B.22 on page 219 of WO15017610, reference compound]	9.10
Cc1cnn2cc(-c3cnn(C(C)(C)C)c3)cc(O[C@H](C)[C@H]3CNC(=O)C3)c12 [example 6.09 on page 559 of WO15017610, reference compound]	10.00
C[C@@H](Oc1cc(-c2cnn(C3CCC3)c2)cc2nn(C)c(F)c12)[C@H]1CNC(=O)C1	9.00
CC(C)n1cc(-c2cc(O[C@H](C)[C@H]3CNC(=O)C3)c3c(F)n(C)nc3c2)cn1	8.89
Cc1c2c(O[C@H](C)[C@H]3CNC(=O)C3)cc(-c3cnn(C(C)C)c3)cc2nn1C	8.96
Cc1c2c(O[C@H](C)[C@H]3CNC(=O)C3)cc(-c3cnn(C4CCC4)c3)cc2nn1C	8.92

INPUT: For the compound Cc1c2c(O[C@H](C)[C@H]3CNC(=O)O3)nc(-c3cnn(C(C)(C)C)c3)cc2nn1C , report pIC50.
OUTPUT: 8.70

* * *

Listing: pIC50 of selected molecules
- ASSAYED TARGET: Recombinant human FLT3 (amino acids 564-958) (Homo sapiens (Human))
- Sequence (P36888 564-958): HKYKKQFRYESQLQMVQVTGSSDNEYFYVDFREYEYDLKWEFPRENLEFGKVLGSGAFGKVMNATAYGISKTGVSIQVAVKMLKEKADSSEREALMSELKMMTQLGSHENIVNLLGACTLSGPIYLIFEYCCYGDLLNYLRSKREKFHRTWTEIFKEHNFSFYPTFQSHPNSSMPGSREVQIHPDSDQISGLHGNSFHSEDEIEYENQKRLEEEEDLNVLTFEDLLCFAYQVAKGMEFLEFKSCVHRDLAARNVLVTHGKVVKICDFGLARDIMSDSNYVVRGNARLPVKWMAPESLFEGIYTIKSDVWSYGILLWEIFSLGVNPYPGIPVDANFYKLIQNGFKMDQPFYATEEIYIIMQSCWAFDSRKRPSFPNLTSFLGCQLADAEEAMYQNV
- ASSAY COMMENT: FLT3 kinase test (ADP Glo)
- Type: biochemical
- ASSAY SETUP: read-out: FLT3 inhibition IC50-value (chapter 5.4)
The scale used: pIC50 is minus the common logarithm of the concentration in molar units.

Cc1c2c(O[C@H](C)[C@H]3CNC(=O)C3)cc(-c3cnn(C(C)C)c3)cc2nn1C [Example 18]	5.33
Cc1cc2c(O[C@H](C)[C@H]3CNC(=O)C3)cc(-c3cnn(C(C)(C)C)c3)cn2n1 [example 6.60 on page 587 of WO15017610, reference compound]	5.18
Cc1c2c(O[C@H](C)[C@H]3CNC(=O)C3)cc(-c3cnn(C4CCC4)c3)cc2nn1C [Example 21]	5.66
Cc1c2c(O[C@H](C)[C@H]3CNC(=O)C3)cc(-c3cnn(C4CC4)c3)cc2nn1C [Example 20]	5.48
C[C@@H](Oc1cc(-c2cnn(C(C)(C)C)c2)cc2ncn(C)c12)[C@H]1CNC(=O)C1 [example 3B.22 on page 219 of WO15017610, reference compound]	6.51
Cc1c2c(O[C@H](C)[C@H]3CNC(=O)O3)nc(-c3cnn(C(C)(C)C)c3)cc2nn1C [Example 3]	5.87
C[C@@H](Oc1cc(-c2cnn(C3CC(C)(C)OC3(C)C)c2)cc2nn(C)c(F)c12)[C@H]1CNC(=O)C1 (stereo partly drawn) [Example 14]	5.39
C[C@@H](Oc1cc(-c2cnn(C3CCC3)c2)cc2nn(C)c(F)c12)[C@H]1CNC(=O)C1 [Example 1]	5.65
Cc1c2c(O[C@H](C)[C@H]3CNC(=O)C3)cc(-c3cnn(CC4CC4)c3)cc2nn1C [Example 8]	5.68
Cc1c2c(O[C@H](C)[C@H]3CNC(=O)C3)cc(-c3cnn(C4CCC(F)(F)C4)c3)cc2nn1C (stereo partly drawn) [Example 22]	5.71

INPUT: Report pIC50 from Recombinant human FLT3 (amino acids 564-958) (Homo sapiens (Human)) testing of C[C@@H](Oc1cc(-c2cnn(CC3CC3)c2)cc2nn(C)c(F)c12)[C@H]1CNC(=O)C1 [Example 6]
OUTPUT: 5.43

INPUT: Report pIC50 from Recombinant human FLT3 (amino acids 564-958) (Homo sapiens (Human)) testing of C[C@@H](Oc1cc(-c2cnn(CCC(F)(F)F)c2)cc2nn(C)c(F)c12)[C@H]1CNC(=O)C1 [Example 12]
OUTPUT: 5.30

INPUT: Report pIC50 from Recombinant human FLT3 (amino acids 564-958) (Homo sapiens (Human)) testing of Cc1cnn2cc(-c3cnn(C(C)(C)C)c3)nc(O[C@H](C)[C@H]3CNC(=O)C3)c12 [example 5.20 on page 506 of WO15017610, reference compound]
OUTPUT: 7.37

INPUT: Report pIC50 from Recombinant human FLT3 (amino acids 564-958) (Homo sapiens (Human)) testing of C[C@@H](Oc1cc(-c2cnn(C3CCC(F)(F)C3)c2)cc2nn(C)c(F)c12)[C@H]1CNC(=O)C1 (stereo partly drawn) [Example 7]
OUTPUT: 5.61

INPUT: Report pIC50 from Recombinant human FLT3 (amino acids 564-958) (Homo sapiens (Human)) testing of Cc1c2c(O[C@H](C)[C@H]3CNC(=O)C3)cc(-c3cnn(CCF)c3)cc2nn1C [Example 11]
OUTPUT: 5.46
